From: patent US20100048677A1

- targetUnderTest: αIIb (INTEGRIN, ALPHA 2B; PLATELET GLYCOPROTEIN IIB OF IIB/IIIA COMPLEX, ANTIGEN CD41) (human)
- assayRemarks: αIIb complexes captured, mass spectrometry; No. Expts 1
Form field: log10 of #Peptides (one value per entry).
In plain terms, each number is the log10 of measured #Peptides in peptides.

Worked cases, answers included:
Task: Given STATHMIN-LIKE 3 (from UniProt Q9NZ72 1-180) , respond with its log10 of #Peptides.
Result: 0.30

Task: Given TRYPTOPHANYL TRNA … 2 (from UniProt Q9UGM6 19-360) , respond with its log10 of #Peptides.
Result: 0.70

Task: Given DEHYDROGENASE E1 AND TRANSKETOLASE DOMAIN CONTAINING 1 (from UniProt Q96HY7 1-919) , respond with its log10 of #Peptides.
Result: 1.40

Task: Given EXOSOME COMPONTENT 10 (from UniProt Q01780 1-885) , respond with its log10 of #Peptides.
Result: 0.95

Task: Given KERATIN 19 (from UniProt P08727 1-400) , respond with its log10 of #Peptides.
Result: 0.48

---
Task: Given PRE-B-CELL COLONY … FACTOR 1 (from UniProt P43490 1-491) , respond with its log10 of #Peptides.
Result: 0.78

Task: Given ACTININ, ALPHA 3 (from UniProt Q08043 1-901) , respond with its log10 of #Peptides.
Result: 0.90

Task: Given ATAXIN 2-LIKE (from UniProt Q8WWM7 1-1075) , respond with its log10 of #Peptides.
Result: 0.90

Task: Given … EXPRESSED 10 (from UniProt Q86TG7 1-708) , respond with its log10 of #Peptides.
Result: 0.48

Task: Given TUBULIN, BETA 2C (from UniProt P68371 1-445) , respond with its log10 of #Peptides.
Result: 1.56

Task: Given PROTEIN PHOSPHATASE 1, … SUBUNIT, ALPHA ISOFORM (from UniProt P62136 2-330) , respond with its log10 of #Peptides.
Result: 0.30

Task: Given RAN BINDING PROTEIN 10 (from UniProt Q6VN20 2-620) , respond with its log10 of #Peptides.
Result: 0.30
